Assay info: Serum fatty acid form concentrations (complex lipidomics) in dolphins fed modified fish diet
Assay type: in vivo
Experimental parameters: bottlenose dolphin (Tursiops truncatus), serum, oral; case dolphins fed modified diet (n = 20), Month 1; read-out: Serum concentration, FFA (free fatty acid) form

{"Compound": "CCCCCCCCCCCCCCC(=O)O [C15:0, pentadecanoic acid]", "Unit of measure": "µM", "concentration at 1 month": 4.2}

###

Assay info: Total serum fatty acid concentrations in dolphins fed modified fish diet
Experimental parameters: bottlenose dolphin (Tursiops truncatus), in vivo

{"Item smiles": "CCCCCCCCCCCCCCCCCCCC(=O)O", "concentration at 0 month (µM)": 94}

###

Assay info: Total serum fatty acid concentrations in dolphins fed modified fish diet
Experimental parameters: bottlenose dolphin (Tursiops truncatus), in vivo

{"Item smiles": "CCCCCCCCCCCCCCCCCCCC(=O)O", "concentration at 3 month [µM]": 98}
